system: Haemonchus contortus; assay: Percent of Haemonchus destroyed or expelled in infected sheep (egg count after treatment); assay type: in vivo, Haemonchus contortus (in sheep); conditions: sheep, 5 mg/kg; Tables III and IV
Reported Effectiveness (%) at 5 mg/kg values are given for each entry in this list.
# value in %; strip the unit string

Previously resolved entries follow.
| COMPOUND | TGT | READOUT_NUMBER |
| --- | --- | --- |
| Cc1c([N+](=O)[O-])cc(C(C)(C)C)c(O)c1C(=O)Nc1ccc(Cl)c(Cl)c1 | Haemonchus contortus | 20 |
| Cc1cc(Cl)ccc1NC(=O)c1c(C)c([N+](=O)[O-])cc(C(C)(C)C)c1O | Haemonchus contortus | 95 |
| Cc1c([N+](=O)[O-])cc(C(C)(C)C)c(O)c1C(=O)Nc1ccc(Cl)cc1Cl | Haemonchus contortus | 100 |

Now for another entry.
State the recorded Effectiveness (%) at 5 mg/kg for this entry: Cc1c([N+](=O)[O-])cc(C(C)(C)C)c(O)c1C(=O)Nc1cc(Cl)ccc1Cl [Example 24, reference compound] 61

====

Catalogue of Haemonchus (15 mg/kg), percent of parasites destroyed or expelled values
system: Haemonchus contortus; test: Percent of Haemonchus destroyed or expelled in infected sheep (egg count after treatment); type: in vivo, Haemonchus contortus (in sheep); settings: sheep, into rumen, 15 mg/kg; Table 1

Before answering, review these 2 worked examples.
| COMPOUND | RESULT |
| --- | --- |
| Cc1c([N+](=O)[O-])cc(C(C)(C)C)c(O)c1C(=O)Nc1ccc(Br)cc1 [Example 8] | 61% |
| Cc1c([N+](=O)[O-])cc(C(C)(C)C)c(O)c1C(=O)Nc1ccc(Cl)cc1 [Example 7] | 81% |

If you can, please state the reported Haemonchus (15 mg/kg), percent of parasites destroyed or expelled value of Cc1c([N+](=O)[O-])cc(C(C)(C)C)c(O)c1C(=O)Nc1ccc(Cl)cc1C(F)(F)F [Example 13] . 100%

Look up Haemonchus (15 mg/kg), percent of parasites destroyed or expelled for this compound: Cc1c([N+](=O)[O-])cc(C(C)(C)C)c(O)c1C(=O)Nc1ccc(I)cc1 [Example 9] 93%

Query: Haemonchus (15 mg/kg), percent of parasites destroyed or expelled; subject: Cc1c([N+](=O)[O-])cc(C(C)(C)C)c(O)c1C(=O)Nc1ccc(C(F)(F)F)cc1 [Example 10] 100%

Need Haemonchus (15 mg/kg), percent of parasites destroyed or expelled, item Cc1cc(Cl)ccc1NC(=O)c1c(C)c([N+](=O)[O-])cc(C(C)(C)C)c1O [Example 6] 100%

Can you share its Haemonchus (15 mg/kg), percent of parasites destroyed or expelled? I mean this compound: Cc1c([N+](=O)[O-])cc(C(C)(C)C)c(O)c1C(=O)Nc1ccc(Cl)cc1Cl [Example 5] 100%

====

system: Haemonchus contortus; assay: Percent of Haemonchus destroyed or expelled in infected sheep (egg count after treatment); assay type: in vivo, Haemonchus contortus (in sheep); settings: sheep, into rumen, 2 mg/kg; Table 1
QUANTITY: Haemonchus (2 mg/kg), percent of parasites destroyed or expelled (%)
Answer with a number only, understood to be in %.

| COMPOUND | READOUT_NUMBER |
| --- | --- |
| Cc1c([N+](=O)[O-])cc(C(C)(C)C)c(O)c1C(=O)Nc1ccc(Br)cc1C(F)(F)F [Example 11] | 99.8 |
| Cc1c([N+](=O)[O-])cc(C(C)(C)C)c(O)c1C(=O)Nc1ccc(Cl)cc1C(F)(F)F [Example 13] | 96 |
| Cc1c([N+](=O)[O-])cc(C(C)(C)C)c(O)c1C(=O)Nc1ccc(I)cc1 [Example 9] | 14 |
| Cc1c([N+](=O)[O-])cc(C(C)(C)C)c(O)c1C(=O)Nc1ccc(Cl)cc1Cl [Example 5] | 14 |

Please state recorded Haemonchus (2 mg/kg), percent of parasites destroyed or expelled (tested on Haemonchus contortus) of Cc1cc(Cl)ccc1NC(=O)c1c(C)c([N+](=O)[O-])cc(C(C)(C)C)c1O [Example 6] 67

Any idea what Haemonchus (2 mg/kg), percent of parasites destroyed or expelled came out for Cc1c([N+](=O)[O-])cc(C(C)(C)C)c(O)c1C(=O)Nc1ccc(Cl)cc1 [Example 7] on Haemonchus contortus? 0
